- measurement target: human Peripheral-type Benzodiazepine Receptor (PBR), TSPO (gene 706) (UniProt P30536)
- Sequence (P30536 whole entry, looked up): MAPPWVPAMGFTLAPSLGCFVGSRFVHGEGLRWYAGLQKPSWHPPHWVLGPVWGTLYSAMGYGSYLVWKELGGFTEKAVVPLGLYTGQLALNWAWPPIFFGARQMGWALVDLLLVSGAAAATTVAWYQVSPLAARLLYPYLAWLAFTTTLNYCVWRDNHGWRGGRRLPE
- experiment: NVS_MP_hPBR: NovaScreen (NVS) Membrane Protein Assay for human Peripheral-type Benzodiazepine Receptor (PBR) (AID 2283331);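 further: hits reduce radioligand binding relative to DMSO baseline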
Records with an inconclusive call do not appear. Activity calls are given as the source filed them. How the source made its calls: active means hit-call score of the fitted dose curve at least 0.9, where 1 is the maximum; inconclusive means response in the unintended direction; inactive means score below 0.9.
Form entry, call: pick from active, inactive

Query: recorded result category for CC(C)CCCCCCOC(=O)c1ccccc1C(=O)OCCCCCCC(C)C in this test
inactive

###

- Read-out: Thrombomodulin, THBD (gene 7056)
- experiment: BSK_3C_Thrombomodulin: BioMAP Diversity Plus: 3C Assay for Thrombomodulin Biomarker Activity (AID 2283029)
- test conditions: primary human endothelial cells (HUVEC); actives raise or lower the signal
Active and inactive are the calls of the source. The calls were made as follows: active = hit-call score of the fitted dose curve at least 0.9, where 1 is the maximum; inactive = score below 0.9.
Select the matching outcome among true (1) for active, false (0) for inactive

Record excerpt, results attached:
molecule | label
CCSC(C)CC1CC(=O)C(C(CC)=NOC/C=C/Cl)=C(O)C1 (stereo not given) | false (0)
COP(=S)(OC)Oc1cc(Cl)c(Cl)cc1Cl | false (0)
ClCC(Cl)CCl | false (0)
COC[C@H](C)N(C(=O)CCl)c1c(C)csc1C | false (0)
C[C@]12CCC(=O)C[C@@H]1CC[C@@H]1[C@@H]2CC[C@]2(C)[C@@H](O)CC[C@@H]12 | false (0)
ClC1(Cl)C2(Cl)C3(Cl)C4(Cl)C(Cl)(Cl)C5(Cl)C3(Cl)C1(Cl)C5(Cl)C24Cl (stereo not given) | false (0)

Can you look up the reported call for O=C(O)C(Cl)(Cl)Cl for me?
false (0)

Look up the recorded call for CCNc1nc(NC(C)(C)C)nc(SC)n1 in this test.
false (0)

Could you kindly confirm the outcome this assay logged for CC(C)(C)c1cc(O)ccc1O ?
true (1)

Write down the call the test reported for this molecule. Item: C=CC(=O)OCCCCCC(C)C
false (0)

Dear all, I need the recorded test outcome for CCC(=O)C(CC(C)N(C)C)(c1ccccc1)c1ccccc1 (stereo not given) , thank you.
false (0)

For O=c1[nH]c(=O)[nH]c(=O)[nH]1 , which call appears in the assay record?
false (0)

###

- Read-out: Nuclear factor erythroid 2-related factor 2 (Homo sapiens) (UniProt Q16236)
- Sequence (Q16236 whole entry, looked up): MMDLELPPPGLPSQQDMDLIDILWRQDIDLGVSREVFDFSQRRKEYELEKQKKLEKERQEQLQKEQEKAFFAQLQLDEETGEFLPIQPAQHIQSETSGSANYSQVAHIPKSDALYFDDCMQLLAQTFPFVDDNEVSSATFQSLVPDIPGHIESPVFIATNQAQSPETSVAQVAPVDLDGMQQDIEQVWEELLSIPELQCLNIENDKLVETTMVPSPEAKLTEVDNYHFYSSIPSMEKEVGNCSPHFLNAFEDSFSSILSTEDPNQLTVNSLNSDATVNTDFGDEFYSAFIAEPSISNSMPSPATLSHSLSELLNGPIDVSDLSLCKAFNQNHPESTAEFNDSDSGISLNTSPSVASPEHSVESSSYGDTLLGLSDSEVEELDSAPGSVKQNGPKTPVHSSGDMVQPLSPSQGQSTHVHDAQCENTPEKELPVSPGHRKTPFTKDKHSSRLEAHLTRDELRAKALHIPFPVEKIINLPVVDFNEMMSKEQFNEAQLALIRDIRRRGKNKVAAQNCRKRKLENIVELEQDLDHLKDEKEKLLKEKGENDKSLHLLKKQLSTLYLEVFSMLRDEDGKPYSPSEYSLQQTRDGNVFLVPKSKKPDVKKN
- experiment: LTEA_HepaRG_NFE2L2: Life Technologies and Expression Analysis (LTEA) Assay for Nuclear factor erythroid 2-related factor 2 (NFE2L2) Transcription Factor using HepaRG (AID 2283527);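 on outcome: TaqMan qRT-PCR transcript level normalised to ACTB GAPDH and POLR2A housekeeping genes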
- test conditions: mRNA level, 48 h; actives raise or lower the signal
Calls of active or inactive are those of the source. The calls were made as follows: active = hit-call score of the fitted dose curve at least 0.9, where 1 is the maximum; inactive = score below 0.9.
Could you please pick one outcome from this set? active, inactive

molecule | label
C=CC(=O)OCCCCCC(C)C | inactive
CC(C)(C)CC(C)(C)c1ccc(O)cc1 | inactive
CCC(=O)C(CC(C)N(C)C)(c1ccccc1)c1ccccc1 (stereo not drawn) | inactive
O=c1[nH]c(=O)[nH]c(=O)[nH]1 | inactive
O=C1C2(Cl)C3(Cl)C4(Cl)C(Cl)(Cl)C5(Cl)C3(Cl)C1(Cl)C5(Cl)C24Cl (stereo not drawn) | active

Recorded test outcome, item CCCCCCCCc1ccc(O)cc1
inactive

Tell me the assay call for C[C@@H]1C[C@@H]([C@H](O)CC2CC(=O)NC(=O)C2)C(=O)[C@@H](C)C1 please.
active

// param item: CC(C)(c1ccccc1)c1ccc(O)c(C(C)(C)c2ccccc2)c1 ; yields the recorded call
active

Which result was noted for this molecule in the test: CC(C)(C)c1cc(O)ccc1O
inactive

Write down the call the test reported for this molecule. Item: C=C(C)C(=O)[O][Sn]([CH2]CCC)([CH2]CCC)[CH2]CCC
active

What call does the record list for CCC(C)(C)c1ccc(O)c(C(C)(C)CC)c1 ?
inactive

Could you kindly confirm the outcome this assay logged for CCN1CCC2(CC1)COc1cc3c(cc12)N(C(=O)c1ccc(-c2ccc(-c4nnc(C)o4)cc2C)cc1)CC3 ?
inactive

Per the assay record, what outcome was assigned to CC12CC1(C)C(=O)N(c1cc(Cl)cc(Cl)c1)C2=O (stereo not drawn) ?
inactive

GET /call?item= ClC1(Cl)C2(Cl)C3(Cl)C4(Cl)C(Cl)(Cl)C5(Cl)C3(Cl)C1(Cl)C5(Cl)C24Cl (stereo not drawn) returns the recorded outcome of this test.
inactive

Which outcome was entered for the molecule NC(=O)O in this test?
inactive

Can you look up the reported call for Cc1ccccc1N for me?
inactive

Per the assay record, what outcome was assigned to CCOP(=S)(OCC)Oc1nc(Cl)c(Cl)cc1Cl ?
inactive

Could you please tell me the result logged for CN(C)N=O in this assay?
inactive
